Biological target: acetylcholinesterase (Homo sapiens, UniProt P22303)
Sequence (P22303 32-614): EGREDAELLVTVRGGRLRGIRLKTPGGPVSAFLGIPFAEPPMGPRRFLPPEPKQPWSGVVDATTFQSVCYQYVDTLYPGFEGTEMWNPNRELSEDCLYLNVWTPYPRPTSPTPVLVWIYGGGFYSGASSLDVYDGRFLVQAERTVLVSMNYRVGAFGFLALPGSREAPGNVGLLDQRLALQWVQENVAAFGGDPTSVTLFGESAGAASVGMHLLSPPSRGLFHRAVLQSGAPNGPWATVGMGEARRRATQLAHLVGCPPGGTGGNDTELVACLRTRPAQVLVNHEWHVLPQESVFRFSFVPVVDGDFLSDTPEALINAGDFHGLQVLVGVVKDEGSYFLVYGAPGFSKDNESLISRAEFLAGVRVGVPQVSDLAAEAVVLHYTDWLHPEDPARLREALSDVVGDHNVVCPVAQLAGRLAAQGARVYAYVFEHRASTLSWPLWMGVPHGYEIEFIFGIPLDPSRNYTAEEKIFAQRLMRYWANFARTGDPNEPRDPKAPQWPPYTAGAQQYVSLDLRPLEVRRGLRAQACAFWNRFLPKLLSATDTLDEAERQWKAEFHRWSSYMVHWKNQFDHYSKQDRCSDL
Assay: biochemical
Conditions: read-out: Cholinesterase Inhibition IC50
Where a name gives a salt, the structure may show the parent alone.
Value Type: pIC50
Formally, pIC50 is defined as -log10 of the concentration c, with c in mol/L.

GET /values?readout=pIC50&item= CON(C)c1c2c(nc3ccccc13)CCCC2 [hydrochloride]
4.57

---

Molecular target: acetylcholinesterase (Homo sapiens, UniProt P22303)
Experiment: biochemical
Conditions: read-out: Cholinesterase Inhibition IC50; photometric method of Ellman et al.
Value Type: IC50
Mention the unit after the number when you answer.

GET /values?readout=IC50&item= CCCONc1c2c(nc3ccccc13)CCCC2 [oxalate, hemihydrate]
830 nM
